System: acetylcholine receptor clustering in C2Cl2 cells
Experiment: Induction of acetylcholine receptor clustering in mouse myoblasts C2Cl2 cells (Test Example 1)
Format: cell-based
Conditions: Mus musculus, Myotube; C2Cl2 myotubes, with 0.1 ng/ml Agrin; concentration giving 50% of cluster area of 10 ng/ml Agrin (100%); read-out: EC50
Counter-ions that a name gives are not always drawn.
measured_quantity: EC50 (nM)
Please reply with the bare figure in nM and do not write the unit itself.

Below, 4 compounds whose answers are already recorded.
> print(dat)
                                   compound                         system.under.test  measured.quantity  numeric.readout
1  Cc1cc(-c2ccc(S(=O)(=O)N3CCCCC3)cc2)nc2cc(C(=O)O)ccc12  acetylcholine receptor clustering in C2Cl2 cells               EC50              428
2  Cc1c(F)c(-c2c(F)cc(S(=O)(=O)N3CCCC3(C)C)cc2F)nc2cc(C(=O)O)ccc12  acetylcholine receptor clustering in C2Cl2 cells               EC50               19
3  Cc1cc(-c2c(F)cc(S(=O)(=O)N3CC[C@H](F)C3)cc2F)nc2nc(OCC(=O)O)ccc12  acetylcholine receptor clustering in C2Cl2 cells               EC50             1820
4  CNCCCc1ccc2c(C)c(F)c(-c3c(F)cc(S(=O)(=O)N4CC[C@H](F)C4)cc3F)nc2c1 [Example 16, hydrochloride]  acetylcholine receptor clustering in C2Cl2 cells               EC50               45

Task item: Fill in the recorded EC50 for this compound, with acetylcholine receptor clustering in C2Cl2 cells as test system: `Cc1c(F)c(-c2c(F)cc(S(=O)(=O)N3CC[C@H](F)C3)cc2F)nc2cc(C(=O)N3CC(C)(C(=O)O)C3)ccc12`
Reply: 303

Task item: Also, `Cc1cc(-c2ccc(S(=O)(=O)N3CCCCC3)cc2)nc2cc(OCCO)ccc12` please.
Reply: 165

Task item: Also, `Cc1cc(-c2ccc(S(=O)(=O)N3CCC[C@H](O)C3)cc2F)nc2cc(C(=O)O)ccc12` please.
Reply: 3520

Task item: Also, `Cc1cc(-c2ccc(S(=O)(=O)N3CCC(F)CC3)cc2F)nc2cc(C(=O)O)ccc12` please.
Reply: 95

Task item: Also, Cc1cc(-c2c(F)cc(S(=O)(=O)N3CC[C@H](F)C3)cc2F)nc2cc(C(=O)NC3CCNC3)ccc12 (stereo partly drawn) please.
Reply: 96

Task item: Also, `Cc1cc(-c2c(F)cc(S(=O)(=O)N3CC[C@H](F)C3)cc2F)nc2cc(/C=C/C(=O)O)ccc12` please.
Reply: 20

Task item: Also, `Cc1c(F)c(-c2c(F)cc(S(=O)(=O)N3CC[C@H](F)C3)cc2F)nc2cc(C(=O)N3CC4(CN(C)C4)C3)ccc12` please.
Reply: 9

Task item: Also, `Cc1cc(-c2c(F)cc(S(=O)(=O)N3CCC(F)CC3)cc2F)nc2cc(C(=O)NCCCN)ccc12` please.
Reply: 33

Task item: Also, `Cc1cc(-c2c(F)cc(S(=O)(=O)N3CCC(F)CC3)cc2F)nc2cc(C(=O)O)ccc12` please.
Reply: 16

Task item: Also, `Cc1cc(-c2c(F)cc(S(=O)(=O)N3CCC(F)CC3)cc2F)nc2cc(C(=O)N3CC4(CNC4)C3)ccc12` please.
Reply: 21

Task item: Also, `Cc1cc(-c2c(F)cc(S(=O)(=O)N3CC[C@H](F)C3)cc2F)cc2nc(N3CCNCC3)ccc12` please.
Reply: 10

Task item: Also, `CNCCNC(=O)c1ccc2c(C)cc(-c3c(F)cc(S(=O)(=O)N4CCC(F)CC4)cc3F)nc2n1` please.
Reply: 11

Task item: Also, Cc1cc(-c2c(F)cc(S(=O)(=O)N3CC[C@H](F)C3)cc2F)nc2nc(C3=CCC(C(=O)O)CC3)ccc12 (stereo partly drawn) please.
Reply: 392

Task item: Also, `Cc1c(F)c(-c2c(F)cc(S(=O)(=O)N3CCCC3)cc2F)nc2cc(C(=O)O)ccc12` please.
Reply: 69

Task item: Also, `COc1cc(S(=O)(=O)N2CC[C@H](F)C2)cc(F)c1-c1cc(C)c2ccc(C(=O)O)nc2c1` please.
Reply: 45

Task item: Also, `Cc1cc(-c2c(F)cc(S(=O)(=O)N3CCC(F)CC3)cc2F)nc2cc(C(=O)N3CC(N)C3)ccc12` please.
Reply: 13

Task item: Also, `Cc1cc(-c2ccc(S(=O)(=O)N3CC[C@H](F)C3)cc2F)nc2c(F)c(N3CCNCC3=O)ccc12` please.
Reply: 7160

Task item: Also, `Cc1cc(-c2c(F)cc(S(=O)(=O)N3CC[C@H](F)C3)cc2F)nc2cc(C(=O)O)ccc12` please.
Reply: 64

Task item: Also, `Cc1c(F)c(-c2c(F)cc(S(=O)(=O)N3CCC(F)CC3)cc2F)nc2cc(C(=O)N3CC4(CN(C)C4)C3)ccc12` please.
Reply: 5

Task item: Also, `Cc1cc(-c2c(F)cc(S(=O)(=O)N3CCC(F)CC3)cc2F)nc2cc(C(=O)NC3CN(C)C3)ccc12` please.
Reply: 52
